- Tested on: four bacterial strains (E. coli, P. aeruginosa, S. epidermidis, S. aureus)
- Type: cell-based
- Test context: 20 h
Residues, ends and D or L forms follow the SMILES beside them.
Property: GM, geometric mean of the MIC values against four bacterial strains; scope: individual compounds
Measurement label: GM, geometric mean of the MIC values against four bacterial strains

INSERT INTO assay_data (compound, system_under_test, result) VALUES
  ('N=C(N)NCCC[C@@H](N)C(=O)N[C@@H](Cc1c[n+](CCCCCCCc2ccccc2)cn1CCCCCCCc1ccccc1)C(=O)N[C@H](CCCNC(=N)N)C(N)=O', 'four bacterial strains (E. coli, P. aeruginosa, S. epidermidis, S. aureus)', '12.0 (14.7) µg/mL'),
  ('N=C(N)NCCC[C@H](NC(=O)[C@@H](N)Cc1c[n+](CCCCCCCc2ccccc2)cn1CCCCCCCc1ccccc1)C(N)=O', 'four bacterial strains (E. coli, P. aeruginosa, S. epidermidis, S. aureus)', '3 (4.6). µg/mL'),
  ('N=C(N)NCCC[C@@H](NC(=O)[C@@H](N)Cc1c[n+](CCCCCCCc2ccccc2)cn1CCCCCCCc1ccccc1)C(N)=O', 'four bacterial strains (E. coli, P. aeruginosa, S. epidermidis, S. aureus)', '3.5 (5.3) µg/mL'),
  ('N=C(N)NCCC[C@H](NC(=O)[C@H](Cc1cncn1CCCCCCCc1ccccc1)NC(=O)[C@@H](N)CCCNC(=N)N)C(N)=O', 'four bacterial strains (E. coli, P. aeruginosa, S. epidermidis, S. aureus)', '17.5 (27.3) µg/mL'),
  ('N=C(N)NCCC[C@H](NC(=O)[C@H](Cc1c[n+](CCCc2ccccc2)cn1CCCc1ccccc1)NC(=O)[C@@H](N)CCCNC(=N)N)C(N)=O', 'four bacterial strains (E. coli, P. aeruginosa, S. epidermidis, S. aureus)', '9 (12.8) µg/mL'),
  ('N=C(N)NCCC[C@H](NC(=O)[C@H](Cc1c[n+](CCCCCCCc2ccccc2)cn1CCCCCCCc1ccccc1)NC(=O)[C@@H](N)CCCNC(=N)N)C(N)=O', 'four bacterial strains (E. coli, P. aeruginosa, S. epidermidis, S. aureus)', '3.5 (4.3) µg/mL'),
  ('N=C(N)NCCC[C@H](NC(=O)[C@H](Cc1c[nH]c2ccccc12)NC(=O)[C@@H](N)CCCNC(=N)N)C(N)=O [RWR-NH2, reference compound] (H-Arg-Trp-Arg-NH2)', 'four bacterial strains (E. coli, P. aeruginosa, S. epidermidis, S. aureus)', '>64 (>124) µg/mL');
